# Tested on: SNB-75 CNS
# experiment_notes: NCI-60 one-dose screen, 48 h
# experimental_setup: 10 µM unless noted
# Procedure: Growth inhibition of the SNB-75 human tumor cell line is measured as a screen for anti-cancer activity. Cells are grown in 96 well plates and exposed to the test compound for 48 hours. Compounds are tested at a single concentration, which is 10^-5 M for most compounds. The reported endpoint is percent growth (GI% or GIPRCNT), where numbers from 0 - 100% represent growth inhibition, and numbers from -100% - 0 represent cell death. For example, a value of 40 represents 60% growth inhibition. […]
This is part of a sample that, as a whole, favours compounds with a hit. Of some 83,000 tested, about 20% had one in any assay. Calls of active or inactive are those of the source. How the source made its calls: active means growth percent below 10; inactive means the rest.
Classes used: YES for active, NO for inactive

>>> class("CC(=O)c1nn(-c2ccc(C)cc2)cc1C(=O)c1cc2c(ccc3ccccc32)oc1=O")
"NO"
>>> class("CC(=O)NCCN")
"NO"
>>> class("CCCCCCCCCCCCOC(=O)/C=C\\C(=O)NC(N)=O")
"NO"
>>> class("O=C(O)COc1ccc([N+](=O)[O-])cc1Cl")
"NO"
>>> class("CCCC(=O)NNc1[nH]c(-c2cc(OC)c(OC)c(OC)c2)cc1C(=O)OCC")
"NO"
>>> class("Clc1ccc(N/N=C/c2ccccn2)nc1")
"NO"
>>> class("CCOC(=O)C1=C(C(F)(F)F)NC(=O)NC1CN1C(=O)c2ccccc2C1=O (stereo not drawn)")
"NO"
>>> class("CC(C)(CNC1CCCCC1)OC(=O)c1ccccc1")
"NO"
>>> class("O=C1C=C(OCC=C(C(F)(F)F)C(F)(F)F)c2ccccc2C1=O")
"NO"
>>> class("CCOC(=O)C(C)C(C)(O)c1ccccc1 (stereo not drawn)")
"NO"
>>> class("C=CN(C)S(C)(=O)=O")
"NO"
>>> class("Oc1ccc(N=Nc2ccc(N=Nc3ccccc3)cc2)cc1")
"NO"
>>> class("COc1ccc(Cn2cc3c(c2)-c2oncc2CC3)cc1OC")
"YES"
>>> class("O=C(NCCCl)Nc1nccnc1OCc1ccc(F)cc1")
"NO"
>>> class("C=CCNC(=S)NNc1ccc([N+](=O)[O-])cn1")
"NO"
>>> class("Cc1nnc(/N=C2\\NC(=O)/C(=C/C=C/c3ccccc3)S2)s1")
"NO"
>>> class("NCCCOc1cc2ccccc2cc1C(=O)Nc1ccc(Cl)cc1OC(=O)c1cc2ccccc2cc1OCCCN")
"YES"
>>> class("CCCCCCCCC/C(=N\\NC(=O)c1ccncc1)c1ccc(O)c(O)c1O")
"NO"
>>> class("[N-]=[N+]=Nc1ncc(-c2ccc(C(F)(F)F)cc2)c(NC2CCCCCC2)n1")
"NO"
>>> class("COc1ccc(/C(=C(\\c2ccccc2)[N+](=O)[O-])c2ccc(OCCN3CCCC3)cc2)cc1")
"NO"
>>> class("COc1ccccc1Nc1nnc(COc2ccc(CNC(=O)CCCC/C=C/C(C)C)cc2OC)o1")
"NO"
>>> class("CC(=O)OCC1O[C@@H](OC(C)=O)[C@@H](NC(=O)NS(=O)(=O)c2ccccc2)C(OC(C)=O)[C@@H]1OC(C)=O (stereo partly drawn)")
"NO"
>>> class("COc1ccc(NC(=O)/C=C(C)/C=C/C=C(C)/C=C/C2=C(C)CCCC2(C)C)cc1")
"NO"

###

Each item that follows carries a reported growth.
# Test system: KM12 colon
# experiment_notes: NCI-60 one-dose screen, 48 h (100 = growth as untreated, 0 = no growth, -100 = all killed)
# experimental_setup: 10 µM unless noted
This is part of a sample that, as a whole, favours compounds with a hit. Of some 83,000 tested, about 20% had one in any assay.
assay_metric: growth (%)

>>> observed_result("CC1(C)CC(=O)C2=C(C1)Oc1nc(N)c(C#N)c(N)c1C2c1ccc(F)cc1 (stereo not drawn)")
109
>>> observed_result("COC(=O)c1ccc2[nH]c(O)c(C(=Nc3ccc(N(C)C(=O)CN4CCN(C)CC4)cc3)c3ccc4c(c3)OCO4)c2c1")
4.89
>>> observed_result("O=C(Nn1cnc2ccccc21)N1CCCC1")
116
>>> observed_result("O=C(N/N=C/c1coc2ccccc2c1=O)c1cc2oc(-c3ccccc3)cc2[nH]1")
101
>>> observed_result("COc1cc(/C=C/C(=O)/C=C(/C=C/c2ccc(OC(C)=O)c(OC)c2)OB(F)F)ccc1OC(C)=O")
73.8
>>> observed_result("COc1ccc(C(=O)c2no[n+]([O-])c2C(=O)c2ccc(OC)cc2)cc1")
102
>>> observed_result("CCC(C)CC(N)O (stereo not drawn)")
102
>>> observed_result("CC1(C)N=C(N)N=C(N)N1c1cccc(CCCCOc2ccccc2)c1")
15.9
>>> observed_result("C=CCSc1nnc(COc2ccc3c(C)c(Cc4ccccc4)c(=O)oc3c2C)o1")
101
>>> observed_result("Nc1ncn([C@@H]2O[C@H](CO)[C@@H](O)C2(F)F)c(=O)n1")
61.2
>>> observed_result("COc1ccc(/C=C(/C(=O)N2CCCCC2)c2cc(OC)c(OC)c(OC)c2)cc1")
16
>>> observed_result("CN1NC(c2ccccc2)NN(C)C1=O")
118
>>> observed_result("COc1ccc(-n2nnnc2-c2cn[nH]c2C(F)(F)F)cc1")
101
>>> observed_result("C/C(CCC(=O)O)=N/Nc1ccc([N+](=O)[O-])cc1")
27.1
>>> observed_result("COc1ccc(-c2nc(Nc3nc4ccccc4[nH]3)nc(N)c2C#N)cc1")
108
>>> observed_result("Clc1ccc(I)c2ccccc12")
110
>>> observed_result("CN1C(=O)C(=Cc2coc3ccc(Br)cc3c2=O)C(=O)N(C)C1=O")
114
>>> observed_result("Nc1cc(N)c2nc(-c3ccccc3)c(NCCc3ccc(Cl)c(Cl)c3)nc2c1")
-83.4

###

# System: HT29 colon
# experiment_notes: NCI-60 one-dose screen, 48 h
# experimental_setup: 10 µM unless noted
About 83,000 compounds went through this panel and 20% of them were active in at least one assay; those are over-represented in the sample as a whole. Activity calls are given as the source filed them. Rule for the calls: active = growth percent below 10; inactive = the rest.
Classes used: t = active, f = inactive

>>> class("C#CCCCCCCC[C@@H]1OC(=O)[C@H]([C@@H](C)CC)NC(=O)[C@@H]([C@@H](C)CC)NC(=O)CC(=O)[C@@H]1C")
"f"
>>> class("O=C(/C=C/c1ccc(Cl)cc1)c1ccc(Cl)cc1")
"f"
>>> class("COc1cc(OC)c2c(=O)cc(-c3ccccc3)oc2c1")
"f"
>>> class("CC(C)(C)OC(=O)N1C/C(=C\\c2ccccc2)C(=O)/C(=C/c2ccccc2)C1")
"f"
>>> class("Brc1c(-c2ccncc2)nc2n1CCS2")
"f"
>>> class("Nc1nc(-c2cccc(Br)c2)cc(-c2cc3ccccc3oc2=O)n1")
"f"
>>> class("Cc1ccccc1-n1c(C)nc2cc(NC(=O)c3ccc(Cl)cc3)ccc2c1=O")
"f"
>>> class("Cn1c2ccccc2c2ccccc21")
"f"
>>> class("COC(=O)c1ccc2[nH]c(O)c(C(=Nc3ccc(N(C)C(=O)CN4CCN(C)CC4)cc3)c3cccc(OC)c3)c2c1")
"t"
>>> class("O=C(Nn1cnc2ccccc21)N1CCCC1")
"f"
>>> class("CCN(CC)CCNc1ncnc2c1cnn2-c1ccc(Cl)cc1")
"t"
>>> class("Cc1ccc(C(=O)NN)cc1")
"f"
>>> class("COc1ccc(C(O)(c2ccccc2)C(C(=O)O)c2ccccc2)cc1 (stereo unspecified)")
"f"
>>> class("CCN(CC)CCCNc1c2ccc(Cl)cc2nc2ccc(OC)cc12")
"t"
>>> class("COc1cc(-c2nn(-c3ccc(NC(=O)c4ccc(Cl)c(C(F)(F)F)c4)cc3)cc2-c2ccncc2)ccc1Cl")
"t"
>>> class("O=C1Nc2ccccc2/C1=C/c1cn(CC(O)Cn2cc(/C=C3\\C(=O)Nc4ccccc43)c3ccccc32)c2ccccc12 (stereo unspecified)")
"t"

###

# Tested on: HCT-116 colon
# experiment_notes: NCI-60 one-dose screen, 48 h (100 = growth as untreated, 0 = no growth, -100 = all killed)
# experimental_setup: 10 µM unless noted
About 83,000 compounds went through this panel and 20% of them were active in at least one assay; those are over-represented in the sample as a whole.
Each item that follows carries a reported growth.
assay_metric: growth (%)

>>> observed_result("COc1ccc2cnc(N)c(C#Cc3cc(C(=O)Nc4ccc(CN5CCN(C)CC5)c(C(F)(F)F)c4)cnc3C)c2c1")
20.5
>>> observed_result("COc1ccc(/C=C(/C(=O)N2CCN(c3ccc(C)cc3)CC2)c2cc(OC)c(OC)c(OC)c2)cc1N")
3.55
>>> observed_result("COc1cc(N2C(=O)C=CC2=O)ccc1N1C(=O)C=CC1=O")
107
>>> observed_result("COc1cc(OC)c2c(=O)cc(-c3ccccc3)oc2c1")
88.9
>>> observed_result("O=Nc1ccc(O)c2ccccc12")
0.195
>>> observed_result("CCCCCCC(C)N(CC(C)(C)O)C(=O)c1ccc([N+](=O)[O-])cc1 (stereo not drawn)")
91.3
>>> observed_result("COc1ccc(Oc2[nH]n(C3=Nc4ccccc4Sc4ccccc43)c(=O)c2C#N)cc1")
93.5
>>> observed_result("CC([C@H]1CCC2C3CCC4C[C@@H](N)CC[C@]4(C)C3CC[C@@]21C)N(C)C (stereo partly drawn)")
27.9
>>> observed_result("CSC1=Nc2c(c(C)c(-c3ccccc3)n2CCCCl)C2=NC(=O)CN12")
26.7
>>> observed_result("O=C1c2cc([N+](=O)[O-])ccc2-c2cc(Cl)c(NC(=O)C(F)(F)F)cc21")
104
>>> observed_result("COC1NC(Cl)=C(C#N)C(C#N)(C#N)C1(C)C (stereo not drawn)")
108
>>> observed_result("O=c1c2c(c3ccccc3n1-c1ccccc1)NC(=S)NC2c1ccccc1 (stereo not drawn)")
96.1
>>> observed_result("Cc1cc2c(-c3nc4ccccc4[nH]3)c(O)c(O)cc2c(O)c1-c1c(C)cc2c(-c3nc4ccccc4[nH]3)c(O)c(O)cc2c1O")
7.37
>>> observed_result("Cc1ccc(S(=O)(=O)NC(CCC(=O)Nc2ccccc2)C(=O)Nc2ccccc2)cc1 (stereo not drawn)")
-49.5
>>> observed_result("C/C=C(/C)C(=O)OC1C=C(CO)C(=O)C(OC(=O)C(C)(O)C(C)Cl)C1C(C)C (stereo not drawn)")
-56.5
>>> observed_result("CCOC(=O)c1cc(-c2ccc(OC)cc2)[nH]c1NNC(=O)CCOC")
93.8
>>> observed_result("COc1cc(-c2nn(-c3ccc(NC(=O)c4cc(Cl)cc(Cl)c4)cc3)cc2-c2ccncc2)ccc1Cl")
64.9
>>> observed_result("CC1(C)N=C(N)N=C(N)N1c1cccc(CCCCOc2ccccc2)c1")
11.3
